The values you see were collected from patent US20230265151A1.

target.or.system: T1, human glucagon receptor (human, UniProt P47871 26-477)
T1 construct: whole, on cells; also called hGCGR; hGcgR
T1 sequence (P47871 26-477): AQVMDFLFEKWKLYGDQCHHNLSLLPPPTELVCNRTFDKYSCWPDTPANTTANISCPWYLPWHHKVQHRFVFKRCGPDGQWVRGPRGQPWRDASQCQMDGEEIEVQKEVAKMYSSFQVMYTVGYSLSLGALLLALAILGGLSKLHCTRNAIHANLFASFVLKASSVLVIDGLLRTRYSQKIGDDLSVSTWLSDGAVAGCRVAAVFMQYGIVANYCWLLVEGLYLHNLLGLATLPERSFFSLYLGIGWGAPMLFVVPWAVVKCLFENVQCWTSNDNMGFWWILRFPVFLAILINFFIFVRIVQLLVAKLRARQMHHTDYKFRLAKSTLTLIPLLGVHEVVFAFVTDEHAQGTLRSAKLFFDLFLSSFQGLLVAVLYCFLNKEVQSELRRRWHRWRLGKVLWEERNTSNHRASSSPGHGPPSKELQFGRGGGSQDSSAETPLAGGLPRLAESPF
assay.details: SPA competition vs [125I]-Gcg, hGcgR membranes
Answer each item with its documented pKi.
Give bare numbers, as −log10 of the molar value.

Worked cases, answers included:
{"binder": "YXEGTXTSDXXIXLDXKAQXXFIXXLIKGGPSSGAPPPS (Aib2, αMeF(2F)6, 4Pal10, Aib11, αMeL13, Orn16, K17(Z1), Aib20, Orn21, D-Glu24, αMeY25, K28(Z1), C-term NH2; Z1=AEEA2-(γ-Glu)-CO-(CH2)10-CH3)", "pKi": 7.47}
{"binder": "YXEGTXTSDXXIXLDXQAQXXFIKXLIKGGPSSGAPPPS (Aib2, αMeF(2F)6, 4Pal10, Aib11, αMeL13, Orn16, Aib20, Orn21, K24(Z1), αMeY25, K28(Z1), C-term NH2; Z1=AEEA-(γ-Glu)-AEEA-(γ-Glu)-(10-(4-carboxyphenoxy)decanoyl))", "pKi": 6.92}
{"binder": "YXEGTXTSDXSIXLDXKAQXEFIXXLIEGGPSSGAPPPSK (Aib2, αMeF(2F)6, 4Pal10, αMeL13, Orn16, K17(Z1), Aib20, D-Glu24, αMeY25, K40(Z1), C-term NH2; Z1=AEEA2-(γ-Glu)-CO-(CH2)10-CH3)", "pKi": 7.86}

Could I get pKi for every one of these entries?
1. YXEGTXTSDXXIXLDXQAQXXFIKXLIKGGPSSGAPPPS (Aib2, αMeF(2F)6, 4Pal10, Aib11, αMeL13, Orn16, Aib20, Orn21, K24(Z1), αMeY25, K28(Z1), C-term NH2; Z1=AEEA2-Trx-(γ-Glu)-CO-(CH2)12-CO2H)
2. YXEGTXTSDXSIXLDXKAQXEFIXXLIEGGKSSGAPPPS (Aib2, αMeF(2F)6, 4Pal10, αMeL13, Orn16, K17(Z1), Aib20, D-Glu24, αMeY25, K31(Z1), C-term NH2; Z1=AEEA-(γ-Glu)-CO-(CH2)12-CO2H)
3. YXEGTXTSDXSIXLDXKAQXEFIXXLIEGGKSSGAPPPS (Aib2, αMeF(2F)6, 4Pal10, αMeL13, Orn16, K17(Z1), Aib20, D-Glu24, αMeY25, K31(Z1), C-term NH2; Z1=AEEA2-(γ-Glu)-CO-(CH2)12-CH3)

*A*
1: 6.02; 2: 6.18; 3: 8.37
